FYI, the data here is from paper PMC9860126.

ASSAY_TARGET: HpNikR K140A (Helicobacter pylori G27, UniProt A1YSQ9 1-148, K140A)
PROTOCOL_DETAILS: fluorescence anisotropy; Ni(II)-bound; FA: 5 nM DNA, 20 mM Tris pH 7.6, 100 mM NaCl, 3 mM MgSO4, temperature not stated (Ni loading 1.2 eq NiSO4 per monomer at RT). EMSA: 20 mM Tris pH 7.5, 100 mM KCl, 3 mM MgCl2, 0.1% IGEPAL, 5% glycerol, 0.1 mg/ml herring sperm DNA, RT; gel with 800 uM NiSO4 at 4 C
CONDITION_DETAILS: protein: recombinant; tags: none stated; chain copies: 4; label: fluorescein on internal thymine (T14 of strand 1); blunt
OBSERVATION_TYPE: Kd (nM)
# number only, unit nM dropped from output

Measured Kd of ureA promoter 32 bp (FA) (dsDNA) DNA 1: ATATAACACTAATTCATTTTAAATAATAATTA DNA 2: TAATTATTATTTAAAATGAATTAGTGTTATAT : 63
